test.target: E. coli iPGM (Escherichia coli)
Sequence (P37689 whole entry, looked up): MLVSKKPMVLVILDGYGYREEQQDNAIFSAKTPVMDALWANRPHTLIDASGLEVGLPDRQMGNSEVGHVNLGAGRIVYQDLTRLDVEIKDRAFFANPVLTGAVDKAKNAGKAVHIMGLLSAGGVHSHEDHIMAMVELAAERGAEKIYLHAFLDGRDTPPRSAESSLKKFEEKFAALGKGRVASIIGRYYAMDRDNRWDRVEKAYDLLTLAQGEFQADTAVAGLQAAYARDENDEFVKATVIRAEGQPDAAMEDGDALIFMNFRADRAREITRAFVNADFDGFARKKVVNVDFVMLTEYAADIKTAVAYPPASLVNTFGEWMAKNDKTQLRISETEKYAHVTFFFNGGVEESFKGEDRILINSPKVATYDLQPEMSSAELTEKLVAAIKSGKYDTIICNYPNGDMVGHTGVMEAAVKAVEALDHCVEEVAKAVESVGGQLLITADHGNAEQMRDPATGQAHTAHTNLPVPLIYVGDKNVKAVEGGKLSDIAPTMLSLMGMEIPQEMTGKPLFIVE
measurement.description: biochemical
run.parameters: pIC50 E. coli iPGM
Positions of bridges follow the written chain, without caps; N, C: chain ends. Non-standard residues stand in square brackets, D forms with d. Residues, ends and D or L forms follow the SMILES beside them.
measured.property: pIC50
Please keep in mind that pIC50 is minus log10 of the molar concentration; only the number is needed.

CC(C)C[C@H](NC(=O)[C@H](Cc1ccc(O)cc1)NC(=O)[C@@H]1CSCC(=O)N[C@H](Cc2ccc(O)cc2)C(=O)N[C@@H](CC(=O)O)C(=O)N[C@@H](Cc2ccc(O)cc2)C(=O)N2CCC[C@H]2C(=O)NCC(=O)N[C@@H](CC(=O)O)C(=O)N[C@@H](Cc2ccc(O)cc2)C(=O)N1)C(=O)N[C@@H](Cc1ccc(O)cc1)C(=O)NCC(=O)N[C@H](C(=O)N[C@@H](CS)C(=O)NCC(N)=O)[C@@H](C)O [Ce-2]	9.26

Data request, read-out pIC50, for CC(C)C[C@H](NC(=O)[C@H](Cc1ccc(O)cc1)NC(=O)[C@@H]1CSCC(=O)N[C@H](Cc2ccc(O)cc2)C(=O)N[C@@H](CC(=O)O)C(=O)N[C@@H](Cc2ccc(O)cc2)C(=O)N2CCC[C@H]2C(=O)NCC(=O)N[C@@H](CC(=O)O)C(=O)N[C@@H](Cc2ccc(O)cc2)C(=O)N1)C(N)=O [Ce-2e] ({CH2CO}-[dY]DYPGDYCYL-NH2; thioether N-8)
7.27

Now try CC(C)C[C@H](NC(=O)[C@H](Cc1ccc(O)cc1)NC(=O)[C@@H]1CSCC(=O)N[C@H](Cc2ccc(O)cc2)C(=O)N[C@@H](CC(=O)O)C(=O)N[C@@H](Cc2ccc(O)cc2)C(=O)N2CCC[C@H]2C(=O)NCC(=O)N[C@@H](CC(=O)O)C(=O)N[C@@H](Cc2ccc(O)cc2)C(=O)N1)C(=O)N[C@@H](Cc1ccc(O)cc1)C(=O)NCC(N)=O [Ce-2c] .
7.98

Now try CC(C)C[C@H](NC(=O)[C@H](Cc1ccc(O)cc1)NC(=O)[C@@H]1CSCC(=O)N[C@H](Cc2ccc(O)cc2)C(=O)N[C@@H](CC(=O)O)C(=O)N[C@@H](Cc2ccc(O)cc2)C(=O)N2CCC[C@H]2C(=O)NCC(=O)N[C@@H](CC(=O)O)C(=O)N[C@@H](Cc2ccc(O)cc2)C(=O)N1)C(=O)N[C@@H](Cc1ccc(O)cc1)C(=O)NCC(=O)N[C@H](C(N)=O)[C@@H](C)O [Ce-2b] .
7.98

Now try CC(C)C[C@H](NC(=O)[C@H](Cc1ccc(O)cc1)NC(=O)[C@@H]1CSCC(=O)N[C@H](Cc2ccc(O)cc2)C(=O)N[C@@H](CC(=O)O)C(=O)N[C@@H](Cc2ccc(O)cc2)C(=O)N2CCC[C@H]2C(=O)NCC(=O)N[C@@H](CC(=O)O)C(=O)N[C@@H](Cc2ccc(O)cc2)C(=O)N1)C(=O)N[C@@H](Cc1ccc(O)cc1)C(=O)NCC(=O)N[C@H](C(=O)N[C@@H](CO)C(=O)NCC(N)=O)[C@@H](C)O [Ce-2S] .
8.00

---

test.target: UniProtKB I6LDA6
Sequence (I6LDA6 whole entry, looked up): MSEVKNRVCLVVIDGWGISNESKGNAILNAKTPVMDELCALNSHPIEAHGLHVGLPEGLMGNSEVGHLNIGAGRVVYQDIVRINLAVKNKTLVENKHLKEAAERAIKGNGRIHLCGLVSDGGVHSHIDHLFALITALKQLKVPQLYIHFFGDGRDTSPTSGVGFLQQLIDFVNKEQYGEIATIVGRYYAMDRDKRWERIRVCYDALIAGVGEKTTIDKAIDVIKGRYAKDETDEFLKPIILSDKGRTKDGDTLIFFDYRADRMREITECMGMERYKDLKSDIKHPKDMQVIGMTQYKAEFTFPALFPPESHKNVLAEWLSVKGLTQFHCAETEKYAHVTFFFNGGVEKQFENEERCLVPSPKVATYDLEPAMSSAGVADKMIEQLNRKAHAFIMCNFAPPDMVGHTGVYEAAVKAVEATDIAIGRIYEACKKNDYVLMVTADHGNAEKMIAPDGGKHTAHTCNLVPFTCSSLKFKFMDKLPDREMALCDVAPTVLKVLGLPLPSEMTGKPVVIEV
measurement.description: biochemical
run.parameters: pIC50, apparent O. volvulus iPGM
Positions of bridges follow the written chain, without caps; N, C: chain ends. Non-standard residues stand in square brackets, D forms with d. Residues, ends and D or L forms follow the SMILES beside them.
measured.property: pIC50
Please keep in mind that pIC50 is minus log10 of the molar concentration; only the number is needed.

Data request, read-out pIC50, for CC(C)C[C@@H]1NC(=O)[C@@H](Cc2ccc(O)cc2)NC(=O)CSC[C@@H](C(=O)N[C@@H](CC(N)=O)C(=O)N[C@H](C(=O)N[C@@H](CS)C(=O)NCC(N)=O)[C@@H](C)O)NC(=O)[C@H](CC(N)=O)NC(=O)[C@@H]2CCCN2C(=O)[C@H](Cc2c[nH]c3ccccc23)NC(=O)[C@H](CCC(=O)O)NC1=O [Bm-4] ({CH2CO}-[dY]LEWPNCNTCG-NH2; thioether N-7)
6.10
